- TARGET OR SYSTEM: Trace amine-associated receptor 1 (Rattus norvegicus)
- Sequence (Q923Y9 whole entry): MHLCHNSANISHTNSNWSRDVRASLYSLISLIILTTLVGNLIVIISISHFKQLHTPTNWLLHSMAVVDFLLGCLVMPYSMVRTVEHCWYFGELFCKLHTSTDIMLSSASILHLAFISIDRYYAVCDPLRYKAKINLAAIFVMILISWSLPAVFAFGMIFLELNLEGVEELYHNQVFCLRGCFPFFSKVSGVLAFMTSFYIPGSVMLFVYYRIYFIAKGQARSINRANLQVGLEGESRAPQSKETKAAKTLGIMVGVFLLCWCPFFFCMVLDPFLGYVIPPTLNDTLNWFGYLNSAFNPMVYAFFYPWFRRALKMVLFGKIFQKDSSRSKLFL
- EXPERIMENT DESCRIPTION: Agonist activity at rat TAAR1 expressed in HEK293 cells assessed as intracellular cAMP level
VALUE TYPE: EC50 (µM)
Quick reminder: number only, in µM, skip the unit.

// EC50 value for CCCCc1oc2ccccc2c1C(=O)c1cc(I)c(OCCN)c(I)c1 : 1
